- MEASURED_TARGET: Cannabinoid CB1 Receptor (Homo sapiens)
- Construct: expressed in transfected cells; semi-purified membrane pellet
- Sequence (P21554 whole entry): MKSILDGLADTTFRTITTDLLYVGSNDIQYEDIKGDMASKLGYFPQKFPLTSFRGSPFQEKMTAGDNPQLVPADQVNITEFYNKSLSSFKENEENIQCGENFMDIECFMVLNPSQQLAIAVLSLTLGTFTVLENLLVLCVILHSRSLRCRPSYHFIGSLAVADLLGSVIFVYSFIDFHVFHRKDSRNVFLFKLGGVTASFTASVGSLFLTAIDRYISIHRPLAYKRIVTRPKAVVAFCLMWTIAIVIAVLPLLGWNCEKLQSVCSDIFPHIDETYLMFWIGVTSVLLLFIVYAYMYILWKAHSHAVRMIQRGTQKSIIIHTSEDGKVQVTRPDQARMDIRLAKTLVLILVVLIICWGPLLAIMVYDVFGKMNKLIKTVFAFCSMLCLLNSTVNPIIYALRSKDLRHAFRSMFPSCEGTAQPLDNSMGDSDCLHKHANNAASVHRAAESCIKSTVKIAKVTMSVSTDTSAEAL
- RUN_DESCRIPTION: Binding assay, cannabinoid CB1 receptor ([3H]-CP-55,940 displacement, SK-N-MC cell membranes)
- CONDITION: test concentration of 0.2 μM; human CB1 in SK-N-MC membranes; read-out: Cannabinoid CB1 Receptor Binding, percent inhibition
Reported inhibition at 0.2 µM maps to class as: lo (below 60%), med (60% to below 80%), hi (80% or more)

>>> category_label("C[C@@H](NC(=O)c1nn(-c2ccc(Cl)cc2Cl)c2c1COCC2Cc1ccc(F)cc1)c1ccccc1 (stereo partly shown)")
"med"
>>> category_label("C[C@@H](NC(=O)c1nn(-c2ccc(Cl)cc2Cl)c2c1COC/C2=C\\c1ccc(Cl)s1)c1ccccc1")
"hi"
>>> category_label("CC1CCCC(C)N1NC(=O)c1nn(-c2ccc(Cl)cc2Cl)c2c1COC/C2=C\\c1ccc(Cl)s1 (stereo not shown)")
"med"
>>> category_label("C[C@H](NC(=O)c1nn(-c2ccc(Cl)cc2Cl)c2c1COC/C2=C\\c1ccc(Cl)s1)c1ccccc1")
"lo"
>>> category_label("CC1CCCC(C)N1NC(=O)c1nn(-c2ccc(Cl)cc2Cl)c2c1COC/C2=C\\c1ccc(F)cc1 (stereo not shown)")
"med"
>>> category_label("O=C(NN1CC2CCCC2C1)c1nn(-c2ccc(Cl)cc2Cl)c2c1COC/C2=C\\c1ccsc1 (stereo not shown)")
"hi"
>>> category_label("O=C(NN1CC2CCCC2C1)c1nn(-c2ccc(Cl)cc2Cl)c2c1COC/C2=C\\c1ccc(Cl)s1 (stereo not shown)")
"med"
>>> category_label("O=C(NCc1ccccn1)c1nn(-c2ccc(Cl)cc2Cl)c2c1COC/C2=C\\c1ccc(F)cc1")
"lo"
>>> category_label("O=C(c1nn(-c2ccc(Cl)cc2Cl)c2c1COC/C2=C\\c1ccc(F)cc1)N1CCCCC1")
"lo"
>>> category_label("O=C(NN1CC2CCCC2C1)c1nn(-c2ccc(Cl)cc2Cl)c2c1COC/C2=C\\c1ccc(F)cc1 (stereo not shown)")
"hi"
>>> category_label("O=C(NN1CCCC1)c1nn(-c2ccc(Cl)cc2)c2c1COC/C2=C\\c1ccc(F)cc1")
"lo"
>>> category_label("O=C(NN1CCCCCC1)c1nn(-c2ccc(Cl)cc2Cl)c2c1COC/C2=C\\c1ccsc1")
"hi"
>>> category_label("O=C(NN1CCCC1)c1nn(-c2ccc(Cl)cc2Cl)c2c1COC/C2=C\\c1ccc(Cl)s1")
"med"

Provenance of the data: patent US20100069341A1
